- METHOD_DESCRIPTION: clinical
- TEST_CONDITIONS: human, in vivo, po, 50 mg, Tmax
Where a name gives a salt, the structure may show the parent alone.

COMPOUND	Tmax (h)
COc1cccc([C@]2(O)CCCC[C@H]2CN(C)C)c1 (racemic) [Tramadol, hydrochloride]	1.88

---

- METHOD_DESCRIPTION: clinical
- TEST_CONDITIONS: human, in vivo, iv, 100 mg, Tmax
Where a name gives a salt, the structure may show the parent alone.

MOLECULE	Tmax
COc1cccc([C@]2(O)CCCC[C@H]2CN(C)C)c1 (racemic) [Tramadol, hydrochloride]	~24.4 min

---

- METHOD_DESCRIPTION: clinical
- TEST_CONDITIONS: human, in vivo, iv, 100 mg
Counter-ions that a name gives are not always drawn.

MOLECULE	AUC(0-inf) / ng·h/mL
COc1cccc([C@]2(O)CCCC[C@H]2CN(C)C)c1 (racemic) [Tramadol, hydrochloride]	11400
